Test: TROY pathway blockers in reporter cells – Q293 LMP1-TROYcd cells, NF-kB luciferase, uHTS, primary screen (AID 1347056)
Conditions: 4 h, at 10 µM, stronger effect = higher value
In all, about 360,000 compounds went through this assay and about 3,600 (1%) were called active. Shown is part of a subset that was picked to be rich in actives.
Task for the reader: assign each of the following compounds its reported inhibition.
Record the value in %, omitting the unit from your answer.

Input: Fill blank: measured inhibition of the compound "O=C(NNc1ccccc1Cl)C(O)(c1cccc(C(F)(F)F)c1)c1cccc(C(F)(F)F)c1" is ____.
Output: 54.1

Input: Cool, now "Cc1ccc2c(C)c(C(=O)N3CCN(c4ccncc4)CC3)oc2c1C"
Output: 5.65

Input: Cool, now "COCCOC(=O)c1c(C)oc2cc(Br)c(OCC(N)=O)cc12"
Output: 9.46

Input: Cool, now "O=C(O)c1cc(S(=O)(=O)N(Cc2ccccc2)c2cccc(C(F)(F)F)c2)ccc1Cl"
Output: 3

Input: Cool, now CC1CC(C)CN(CCOc2cccc3ccccc23)C1 (stereo unspecified)
Output: 6.96

Input: Cool, now "O=c1cc(O)c(-c2cccc(C(F)(F)F)c2)c(Cl)[nH]1"
Output: -14.8

* * *

Experiment: TROY pathway blockers in reporter cells – Q293 LMP1-TROYcd cells, NF-kB luciferase, uHTS, primary screen (AID 1347056)
Settings: 4 h, at 10 µM
Out of some 360,000 compounds screened, about 3,600 (1%) were called active.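 Rule for the calls: active = compounds whose plate-normalised and pattern-corrected inhibition of the luciferase reporter signal at the single screening dose is 50% or more; inactive = the rest.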 What follows is part of a selection rich in actives, with near analogues and random picks from the rest.
Bench note: report the call from active, inactive

Input: Dear colleague, could you share the recorded outcome for COc1ccc(CCN2C(=O)c3[nH]nc(-c4ccccc4O)c3C2c2ccc(C)cc2)cc1OC (stereo not drawn) when you have a moment?
Output: inactive

Input: Cool, now "CC(=O)c1cc2c(cc1NC(=O)Cn1nc(-c3ccc(F)cc3)ccc1=O)OCO2"
Output: inactive

Input: Cool, now "CC1(C)N=C(N)NC(Nc2ccc(Cl)cc2)=N1"
Output: inactive

Input: Cool, now "COC(=O)CNS(=O)(=O)c1ccc(Cc2ccc(S(=O)(=O)NCC(=O)OC)cc2)cc1"
Output: inactive

Input: Cool, now "COCCNc1nc(NCc2ccc(NC(C)=O)cc2)c2sccc2n1"
Output: inactive

Input: Cool, now CCOc1ccc(C2c3[nH]c4ccccc4c3CCN2Cc2cccn2-c2ncccn2)cc1 (stereo not drawn)
Output: inactive

Input: Cool, now "O=C(Cc1ccccc1)Nc1ccc(NC(=O)c2cccnc2)cc1"
Output: inactive

Input: Cool, now COC(=O)C1=C(N)Oc2cc(C)oc(=O)c2C1c1cccnc1 (stereo not drawn)
Output: inactive

Input: Cool, now "Cc1ccc2nc(-c3ccc(NC(=O)c4cccnc4)cc3)oc2c1"
Output: active

Input: Cool, now CCCNC(=O)c1cc(C2CCCCN2S(=O)(=O)c2ccc(C#N)cc2)on1 (stereo not drawn)
Output: inactive

Input: Cool, now CCC(Oc1ccccc1C)C(=O)Nc1ccc(S(=O)(=O)Nc2cc(C)on2)cc1 (stereo not drawn)
Output: inactive

Input: Cool, now "O=C1Cc2ccccc2Sc2ccc(Cl)cc21"
Output: inactive

Input: Cool, now "CCO[C@@H]1OC(C(=O)N2CCOCC2)=C[C@H](C)[C@H]1CCCO"
Output: inactive

Input: Cool, now COc1c(C)cc(C(=O)C2CCCN(S(=O)(=O)c3c(C)noc3C)C2)cc1C (stereo not drawn)
Output: active

Input: Cool, now "CC(=O)c1ccc(S(=O)(=O)NCCC(=O)N2CCN(c3ccccn3)CC2)cc1"
Output: inactive

Input: Cool, now COc1ccc(C(=O)NC(C)CCc2ccccc2)c(OC)c1 (stereo not drawn)
Output: inactive

Input: Cool, now COC(=O)C1=C(C)N=C2SC(C)C(=O)N2C1/C=C/c1ccccc1 (stereo not drawn)
Output: inactive

Input: Cool, now Cc1ccc(C2=NN(C(=O)CSc3nc(N)cc(N)n3)C(c3ccco3)C2)cc1 (stereo not drawn)
Output: inactive

Input: Cool, now "Cc1ccccc1N1CCN(Cc2nc(Cc3ccccc3F)no2)CC1"
Output: inactive

Input: Cool, now "Cc1csc(NC(=O)NC2(C(F)(F)F)Oc3ccccc3O2)n1"
Output: inactive

Input: Cool, now "C=CCC[C@@H](Cc1ccc(F)cc1)C(=O)O[C@H](CNC(=O)[C@H](CC=C)CC(=O)N(CCO)Cc1ccccc1)c1ccccc1"
Output: inactive

Input: Cool, now "COC(=O)C1=C(C(=O)OC)[C@@H]2N(C)c3ccccc3[C@@]23C[C@@H](C(=O)OC)N(C(=O)c2ccco2)C3=N1"
Output: inactive

Input: Cool, now CC(C)C(C)(C#N)NC(=O)CSc1nncn1-c1ccccc1 (stereo not drawn)
Output: inactive

Input: Cool, now "CCCCSc1nnc2c(n1)OC=Nc1ccccc1-2"
Output: inactive

Input: Cool, now "COc1cccc(CNc2nc(NCc3cccs3)nc3ccsc23)c1"
Output: active

Input: Cool, now "C/C(CC(=O)NC(C)(C)C)=N\NC(=O)c1ccco1"
Output: inactive

Input: Cool, now "Cc1ccccc1NC(=O)C1CCN(C(=O)NC2CCCCC2)CC1"
Output: inactive

Input: Cool, now "CCCN(CCC)S(=O)(=O)c1cc2c(cc1Br)CCN2C(=O)CC"
Output: inactive

Input: Cool, now "Cc1ccc(NC(=S)N(CCCN2CCCC2)Cc2cccn2Cc2ccc(Cl)cc2)cc1"
Output: inactive

Input: Cool, now "Cn1c(=O)c2c(nc(Br)n2CCSc2nc3ccccc3o2)n(C)c1=O"
Output: inactive

Input: Cool, now "Cc1ccc(S(=O)(=O)N2CCC(C(=O)N[C@@H](C)C(=O)NCc3ccco3)CC2)cc1"
Output: inactive

Input: Cool, now "O=C(O)c1cc(S(=O)(=O)N2CCCCCC2)c(Cl)cc1Cl"
Output: inactive

Input: Cool, now "Cc1cc(NS(=O)(=O)c2ccc(NC(=O)c3cccnc3)cc2)nc(C)n1"
Output: inactive

Input: Cool, now O=C(CN1CCN(C2CCS(=O)(=O)C2)CC1)N1N=C(c2ccc(Cl)cc2)CC1c1ccco1 (stereo not drawn)
Output: active

Input: Cool, now "CN(C)C(=S)Nc1ccc(Br)cc1Cl"
Output: inactive

Input: Cool, now "Fc1ccccc1-c1cc2cc3c(cc2cn1)OCO3"
Output: inactive

Input: Cool, now "O=S(=O)(c1ccc(Br)cc1)N1CCC(c2nc3ccccc3[nH]2)CC1"
Output: inactive

Input: Cool, now CC(CNc1ccc([N+](=O)[O-])c2cccnc12)Nc1c([N+](=O)[O-])cc(C(F)(F)F)cc1[N+](=O)[O-] (stereo not drawn)
Output: inactive

Input: Cool, now N#CC(C(=O)c1ccc(S(=O)(=O)N2CCCCCC2)cc1)c1nc2ccccc2[nH]1 (stereo not drawn)
Output: active

Input: Cool, now "O=C(Nc1ncccc1O)c1ccc(S(=O)(=O)N2CCCCCC2)cc1"
Output: inactive

Input: Cool, now "COc1cc(SC)ccc1C(=O)Nc1nc(C)cs1"
Output: active

Input: Cool, now "CCC(CC)C(=O)Nc1ccc(S(=O)(=O)Nc2nccs2)cc1"
Output: inactive

Input: Cool, now CC(NC(=O)COC(=O)c1ccc(Cl)cc1O)c1ccc(F)cc1 (stereo not drawn)
Output: inactive

* * *

Task for the reader: assign each of the following molecules its reported inhibition.
Assay: TROY pathway blockers in reporter cells – Q293 LMP1-TROYcd cells, NF-kB luciferase, uHTS, primary screen (AID 1347056)
Conditions: 4 h, at 10 µM, stronger effect = higher value
About 3,600 (1%) of roughly 360,000 compounds were called active. What follows is part of a selection rich in actives, with near analogues and random picks from the rest.
Record the value in %, omitting the unit from your answer.

Input: Fill blank: measured inhibition of the molecule "O=C(CN1CCOCC1)Nc1c(Cl)cc(Cl)cc1Cl" is ____.
Output: -5.43

Input: Cool, now "N#Cc1c(NC(=O)CCCl)sc2c1CCCCC2"
Output: -37

Input: Cool, now CC(Oc1ccc(Br)cc1)C(=O)NCC(c1ccco1)N1CCCCC1 (configuration not stated)
Output: 7.2

Input: Cool, now "C[N+](C)(C)CCNC(=O)c1c[nH]c2ccccc12"
Output: -5.29

Input: Cool, now "O=C(COC(=O)c1ccccc1)c1ccc2c(c1)OCCO2"
Output: 80.8

Input: Cool, now "CCOC(=O)C1(S(=O)(=O)c2ccc(Cl)cc2)CCN(Cc2ccccc2)CC1"
Output: -14.2

Input: Cool, now "CC(=O)c1c(C)[nH]c(C(=O)OCC(=O)Nc2sc3c(c2C#N)CCCC3)c1C"
Output: 52.3

Input: Cool, now "Cc1ccc(-c2csc(NC(=O)Cn3[nH]c(=O)c4ccccc4c3=O)n2)cc1"
Output: 55.9

Input: Cool, now COc1ccc(/C(O)=C2/C(=O)C(=O)N(c3nc(C)c(C)s3)C2c2ccco2)cc1 (configuration not stated)
Output: -21.4

Input: Cool, now "COc1ccc(C(=O)OCC(=O)Nc2cccc(C(C)=O)c2)cc1OC"
Output: 10.5

Input: Cool, now "O=C(OCc1ccccc1F)c1ccc2c(c1)OCCO2"
Output: -79.6

Input: Cool, now "Cc1cccc(OC(=O)c2sc3ncn(C)c(=O)c3c2C)c1"
Output: -27.1

Input: Cool, now "Fc1ccc2nc(-c3ccccc3)nc(SCc3nnc(-c4ccccc4)o3)c2c1"
Output: -9.52

Input: Cool, now "Cc1ccc(C)c(C(=O)COC(=O)Cn2[nH]c(=O)c3ccccc3c2=O)c1"
Output: -0.89

Input: Cool, now "CCC(C)(C)NC(=O)CN(Cc1cccs1)C(=O)CNS(=O)(=O)c1ccc(F)cc1"
Output: -7.55

Input: Cool, now "CCC(=NC1CC(C)(C)NC(C)(C)C1)C1=C(O)CC(C)(C)CC1=O"
Output: -0.72

Input: Cool, now COc1ccc(C2/C(=C(/O)c3ccccc3)C(=O)C(=O)N2c2ncccn2)cc1OC (configuration not stated)
Output: -2.92

Input: Cool, now "CCN(C(=O)CSc1nnc(-c2ccncc2)o1)c1ccccc1"
Output: 2.98

Input: Cool, now "O=C(COC(=O)c1ccc(O)cc1O)c1ccc2c(c1)OCCO2"
Output: 1.99

Input: Cool, now "C=CCn1c(COc2ccccc2F)nnc1SCC(=O)N1CC(=O)Nc2ccccc21"
Output: -21.6

Input: Cool, now "CC(=O)c1c(C)[nH]c(C(=O)OCC(=O)Nc2c(C)cccc2C)c1C"
Output: 14.6

Input: Cool, now CCOc1ccc(/C(O)=C2\C(=O)C(=O)N(c3ccc(OC)cc3)C2c2ccccc2[N+](=O)[O-])cc1 (configuration not stated)
Output: 54.8
